test system: Paenibacillus 1 (Paenibacillus castaneae); assay: relative growth (AUC of 72 h growth curve relative to DMSO control, dAUC) (ratio); higher = more growth (less inhibition), active = hit call of the paper; conditions: 20 µM
observed_property: relative growth
// response body must contain only the number

API: value(readout=relative growth, system=Paenibacillus 1 (Paenibacillus castaneae)) for record CS(=O)(=O)c1cc(C(F)(F)F)ccc1C(=O)c1cnoc1C1CC1
1.13

// next record O=C(Nc1ccccc1-c1ccc(Cl)cc1)c1cccnc1Cl
1.02

// next record CNC(=O)ON=C(C)SC
1.07

// next record OC(Cc1ccccc1Cl)(Cn1nc[nH]c1=S)C1(Cl)CC1 (stereo unspecified)
1.01

// next record N#Cc1c(Cl)c(Cl)c(Cl)c(C#N)c1Cl
0.0717

// next record CCC(C)(C)C(=O)OC1=C(c2ccc(Cl)cc2Cl)C(=O)OC12CCCCC2
0.964

Reference source for all entries: the supplement of paper PMC12067926
